So I've got a bunch of molecules here, and I need their IC50 values.
Molecular target: human recombinant HDAC6 (Homo sapiens, UniProt Q9UBN7)
Construct: purchased Calbiochem Inc. 382180
Sequence (Q9UBN7 whole entry): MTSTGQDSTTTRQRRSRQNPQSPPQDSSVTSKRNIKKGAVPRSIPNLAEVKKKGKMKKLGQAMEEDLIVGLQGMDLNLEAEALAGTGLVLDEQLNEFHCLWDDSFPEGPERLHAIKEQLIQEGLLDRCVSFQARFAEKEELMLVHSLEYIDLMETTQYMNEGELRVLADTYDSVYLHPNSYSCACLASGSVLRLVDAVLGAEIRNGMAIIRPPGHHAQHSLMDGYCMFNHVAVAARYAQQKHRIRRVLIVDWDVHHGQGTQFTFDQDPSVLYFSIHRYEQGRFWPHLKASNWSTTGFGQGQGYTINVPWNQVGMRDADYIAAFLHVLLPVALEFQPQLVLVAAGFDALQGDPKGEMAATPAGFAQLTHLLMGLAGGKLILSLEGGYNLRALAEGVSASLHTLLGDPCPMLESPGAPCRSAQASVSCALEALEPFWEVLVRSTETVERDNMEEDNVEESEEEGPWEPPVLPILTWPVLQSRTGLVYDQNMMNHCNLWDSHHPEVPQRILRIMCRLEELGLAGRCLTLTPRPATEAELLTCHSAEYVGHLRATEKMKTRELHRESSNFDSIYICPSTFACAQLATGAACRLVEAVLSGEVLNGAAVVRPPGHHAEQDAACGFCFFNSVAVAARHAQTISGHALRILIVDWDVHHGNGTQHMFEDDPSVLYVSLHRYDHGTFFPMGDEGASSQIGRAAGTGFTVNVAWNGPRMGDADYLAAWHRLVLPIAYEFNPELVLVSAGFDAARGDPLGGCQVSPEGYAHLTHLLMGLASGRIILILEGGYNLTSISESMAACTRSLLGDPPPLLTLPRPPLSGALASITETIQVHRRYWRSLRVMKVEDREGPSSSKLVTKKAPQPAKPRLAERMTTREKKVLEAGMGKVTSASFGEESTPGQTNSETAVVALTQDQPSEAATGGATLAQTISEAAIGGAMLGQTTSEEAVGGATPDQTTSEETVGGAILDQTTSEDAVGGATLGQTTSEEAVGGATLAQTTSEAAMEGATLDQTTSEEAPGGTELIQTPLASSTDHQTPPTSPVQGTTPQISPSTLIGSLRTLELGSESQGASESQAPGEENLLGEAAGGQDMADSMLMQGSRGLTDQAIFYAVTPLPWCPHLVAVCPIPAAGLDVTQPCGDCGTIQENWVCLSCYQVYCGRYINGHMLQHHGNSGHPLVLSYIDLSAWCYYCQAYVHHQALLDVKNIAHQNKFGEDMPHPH
Experiment: HDAC6 enzyme activity inhibition (HDAC Fluorimetric Drug Discovery Kit)
Assay type: biochemical
Settings: human recombinant HDAC6, same protocol as HDAC1
Answers are plain numbers, in µM.

Would you please look over these solved cases?
1. CC(C)N1Cc2cccc(-c3cn(Cc4ccc(-c5nnc(C(F)F)o5)cn4)nn3)c2C1 [Compound 4597]; 0.0615
2. Fc1cc(-c2nnc(C(F)F)o2)cnc1Cn1cc(-c2cccc(C3CCN(C4COC4)CC3)c2)nn1 [Compound 18871]; 0.074

Now for a further molecule.
Record Fc1cc(-c2nnc(C(F)F)o2)cnc1Cn1cc(-c2ccccn2)nn1 [Compound 17983] , field IC50: 0.0789

Reference source: patent US20230257372A1
